In this section, each of the molecules is paired with its reported T/C.
System: BDF1 mice, P388 leukemia ip, median survival T/C
Assay: NCI In Vivo Anticancer Drug Screen. Data for tumor model P388 Leukemia (intraperitoneal) in B6D2F1 (BDF1) mice
Conditions: endpoint: median survival time; dose: 100.0 mg/kg/injection; schedule: Q04DX003 (ip); vehicle: gum acacia; higher = longer survival
Toxic doses and inconclusive results are not listed.

These solved cases illustrate the format of a correct answer.
input: GET /values?readout=T/C&item= `C=CCNC(=O)c1ccccc1OCC(=O)O`
output: 100 % of control

input: Next molecule up: `O=C(/C=N/O)c1ccccc1`
output: 96 % of control

Next:
input: # input molecule: `CCOC(=O)CCC(C)(c1ccc(O)cc1)c1ccc(O)cc1` ; wanted: its T/C
output: 104 % of control

input: Quick one: `Nc1c(C(=O)O)ccc2c1C(=O)c1ccccc1C2=O`
output: 87 % of control

* * *

# T/C per record follows
Tested on: BDF1 mice, P388 leukemia ip, median survival T/C
Test: NCI In Vivo Anticancer Drug Screen. Data for tumor model P388 Leukemia (intraperitoneal) in B6D2F1 (BDF1) mice
Conditions: endpoint: median survival time; dose: 100.0 mg/kg/injection; schedule: Q04DX003 (ip); vehicle: saline with Tween-80; higher = longer survival
Toxic doses and inconclusive results are not listed.

input: Tell me the measured T/C of `Cc1sc2ncnc(N)c2c1C` , please.
output: 105 % of control

Others:
input: Name the reported T/C value associated with the compound `CCCC(=O)OCc1ccc(Cl)cc1Cl`
output: 109 % of control

input: Here is the next compound: `CCCCCCCCCCCCOc1ccc(C)cc1`
output: 109 % of control

input: Ok, now `CCOC(=O)C(=CN1CCCCC1)C(=O)OCC`
output: 95 % of control

input: Moving on to `C/C(Cc1ccccc1)=N/N(C)C`
output: 104 % of control

input: Let us now turn to `C=CCOC(=O)C1c2ccccc2Cc2ccccc21`
output: 100 % of control

input: CC1C(=O)CCC2(C)CCC(C)(C)CC12 (stereo not given) , same question.
output: 109 % of control

input: // next record COC(=O)C(CSCSC)NC(=O)/C=C/c1ccccc1Cl (stereo not given)
output: 100 % of control

* * *

System: BDF1 mice, P388 leukemia ip, median survival T/C
Test: NCI In Vivo Anticancer Drug Screen. Data for tumor model P388 Leukemia (intraperitoneal) in B6D2F1 (BDF1) mice
Details: endpoint: median survival time; dose: 12.5 mg/kg/injection; schedule: Q01DX009 (ip); vehicle: saline; higher = longer survival
Protocol: The antitumor activity of compounds was measured in mice bearing transplantable tumors. Survival or tumor size were measured and the results are expressed as the measurement made in the treated group (T) divided by the measurement made in the vehicle treated control group (C). The tumor model used in this assay is P388 Leukemia (intraperitoneal) in B6D2F1 (BDF1) mice
Toxic doses and inconclusive results are not listed.
quantity.kind: T/C

Some compounds with known T/C results, for comparison:
input: Value wanted: T/C (BDF1 mice, P388 leukemia ip, median survival T/C) of entry CCCCCC(C[N+]1(C)CCOCC1)C(=O)/C=C/c1ccccc1 (stereo not given)
output: 95 % of control

input: Try this compound too: `[N-]=[N+]=NCc1cnccn1`
output: 100 % of control

input: Request: CCC1C2CC3C4N(C)c5ccc(Br)cc5C45CC(C2C5O)[N+]3(CC(O)CN2CCCCC2)C1O (stereo not given)
output: 106 % of control

input: Again, but for `CN[C@@H]1[C@H](O)[C@H](NC)[C@H]2O[C@@]3(O)C(=O)C[C@@H](C)O[C@H]3O[C@@H]2[C@H]1O`
output: 90 % of control

Now consider a different compound.
input: Provide the documented T/C with BDF1 mice, P388 leukemia ip, median survival T/C as the system for Cc1cccc(N)n1 (tested in a mixture with another compound)
output: 105 % of control
